TARGET_SYSTEM: T1, recombinant human ErbB2/Fc chimera (human, UniProt P04626 23-652)
T1 construct: bought from R&D Systems; also called rhErbB2-Fc; rhErb2-Fc; Fc part of the bought chimera not given; not described
MEASUREMENT_DESCRIPTION: ELISA, coated ErbB2/Fc
MEASUREMENT_LABEL: binding result

1. 14H81/1-125 (VHH, C-term myc-His6 tag) VHH: EVQLVESGGGLVQAGGSLSLSCAASGRTFSNYRMAWFRQAPRKEREFVAAISRSGESTYFADSMKGRFTISRDNTESTGYLQMNNLKPEDTAVYYCAASWDHGDYVDGGFFYDYWGQGTQVTVSS
binds
2. 17D7 (VHH, C-term myc-His6 tag) VHH: EVQLVESGGGLVQPGGSLRLSCAASGFTLDYCAIGWFRQAPGKEREGVSCISSSDGSTYYADSVKGRFTISRDNAKNTVYLQMNSLKPEDTAVYYCATDRGSGTCYADFGSWGQGTQVTVSS
binds
